Test: Solubility in deionised water, acetate, succinate and citrate buffers (Example 5)
Assay type: physicochemical
Conditions: citrate buffer, aqueous buffer, thermodynamic from solid; 50 mM Citrate pH 6.0; pH 5.55; read-out: Solubility L-lactate salt of compound of formula (I)
observable: solubility
Answer format reminder: number followed by unit.

Query: # lookup: solubility of `CC(C)c1cc(C(=O)N2Cc3ccc(CN4CCN(C)CC4)cc3C2)c(O)cc1O.C[C@H](O)C(=O)O`
Response: 83.9 mg/mL

----------
Test: Effect of surfactant (polysorbate 80, Tween) on solubility in phosphate buffer pH 7.2 (Example 6)
Assay type: physicochemical
Details: sodium phosphate buffer, aqueous with cosolvent or surfactant or cyclodextrin; 200 mM phosphate, pH 7.2, Tween 1-8 % (w/v); read-out: Solubility of L-lactate salt of compound of formula (I)
observable: solubility

Query: # lookup: solubility of `CC(C)c1cc(C(=O)N2Cc3ccc(CN4CCN(C)CC4)cc3C2)c(O)cc1O.C[C@H](O)C(=O)O`
Response: 33 to 34 mg/mL
